system: K4 kissing-loop RNA reporter; test: apparent KD of K4 kissing-loop reporter; higher = weaker reporter binding; conditions: Eterna round: R107; input ligand: none;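 further: bound reporter read as fluorescence of individual clusters on recovered sequencing chips by microscopy, with normalized cluster intensities fitted with a binding model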
measuredProperty: apparent KD of K4 kissing-loop reporter (nM)

INSERT INTO measurements (querysequence, targetortestsystem, recordedvalue) VALUES
  ('UUUAAAUAUAGUGAUGUUAUAUAACAAUGACGAGGACCGGUACGGCCGCCACUCGAGAGAGAUAAUGAUAAAAUAAAUAAUUUUC [AstrosSSTrypA#1]', 'K4 kissing-loop RNA reporter', 643),
  ('UGUCAUUGGUCGGCCGCCACUGAAAUAAAAGAGUGAUGUUCUUAAAAGACGGACAAAGUCUGUCAUAGGACCGGGACCGAUGACU [TrypBS 24 #SwitchBubble #StaticStem]', 'K4 kissing-loop RNA reporter', 473),
  ('UUUGGUUUCUCGGCCGCCACUCGUUGUCUAUCGGCUUCAGGGAUAUAGUGAUGUUAUGUAUAGAAGAGGACCGGGAGAAGGUUCC [ExTryptoB.Dy]', 'K4 kissing-loop RNA reporter', 303),
  ('AUGGACUCUUCGGAGUCCGCCUUAAGGGAUACCAGUGAUGUUGGUCACCCUUGGCAGCCUAGAAAGGAAGCCACCAAAGGUGGCA [Omei v1 mod #OpenEnded #Sliding]', 'K4 kissing-loop RNA reporter', 128),
  ('UGAUUUAACUGAAGGAGCGGCAAUUGAUAAGUAAAUAUAGUGAUGUUAUAUAAGAGAGAGAGCCAGGUAGGUCGCAGAGGGAGGA [ExArgB.I]', 'K4 kissing-loop RNA reporter', 167),
  ('AUUUAAUUAACUGAUACCAGACUUUUUGUUUUGAUAAUUACUAGUGAUGUUAGUGUUUCUGUCCCUUGGCAGCAGUAUCUACUUA [JR_ExcTheophyB_Sub017]', 'K4 kissing-loop RNA reporter', 122);
